assay: Caco-2 cells monolayer transport study; assay type: in vitro ADME; conditions: human, Caco-2, with GF120918 (elacridar), 10 μM
result type: Papp A→B at 2 h, 120 μg/mL (×10⁻⁶ cm/s)
Output spec: scalar in ×10⁻⁶ cm/s, unitless text.

Which Papp A→B at 2 h, 120 μg/mL is reported for this molecule? Nc1ccn([C@@H]2CS[C@H](CO)O2)c(=O)n1 [Lamivudine] 0.322

====

assay: Caco-2 cells monolayer transport study; format: in vitro ADME; conditions: human, Caco-2, with GF120918 (elacridar), 10 μM
result type: Papp B→A at 2 h, 1200 μg/mL (×10⁻⁶ cm/s)
Output spec: scalar in ×10⁻⁶ cm/s, unitless text.

Which Papp B→A at 2 h, 1200 μg/mL is reported for this compound? Nc1ccn([C@@H]2CS[C@H](CO)O2)c(=O)n1 0.531

====

experiment: Caco-2 cells monolayer transport study; format: in vitro ADME; conditions: human, Caco-2, with GF120918 (elacridar), 10 μM
result type: efflux ratio at 2 h, 30 μg/mL
Please state the value as a number alone, without comment.

Which efflux ratio at 2 h, 30 μg/mL is reported for this compound? C[C@H]1O[C@@H](O[C@H]2[C@@H](O)C[C@H](O[C@H]3[C@@H](O)C[C@H](O[C@H]4CC[C@@]5(C)[C@H](CC[C@@H]6[C@@H]5C[C@@H](O)[C@]5(C)[C@@H](C7=CC(=O)OC7)CC[C@]65O)C4)O[C@@H]3C)O[C@@H]2C)C[C@H](O)[C@@H]1O [Digoxin] 1.43

====

assay: Caco-2 cells monolayer transport study; format: in vitro ADME; settings: human, Caco-2, with GF120918 (elacridar), 10 μM
result type: Papp A→B at 2 h, 1200 μg/mL (nm/s)
Output spec: scalar in nm/s, unitless text.

Which Papp A→B at 2 h, 1200 μg/mL is reported for this compound? Nc1ccn([C@@H]2CS[C@H](CO)O2)c(=O)n1 2.93

====

assay: Caco-2 cells monolayer transport study; assay type: in vitro ADME; details: human, Caco-2, with GF120918 (elacridar), 10 μM
result type: Papp B→A at 2 h, 30 μg/mL
Express the reported value numerically, then name its unit.

Which Papp B→A at 2 h, 30 μg/mL is reported for this compound? C[C@H]1O[C@@H](O[C@H]2[C@@H](O)C[C@H](O[C@H]3[C@@H](O)C[C@H](O[C@H]4CC[C@@]5(C)[C@H](CC[C@@H]6[C@@H]5C[C@@H](O)[C@]5(C)[C@@H](C7=CC(=O)OC7)CC[C@]65O)C4)O[C@@H]3C)O[C@@H]2C)C[C@H](O)[C@@H]1O 5.15 ×10⁻⁶ cm/s

====

experiment: Caco-2 cells monolayer transport study; assay type: in vitro ADME; settings: human, Caco-2
Counter-ions that a name gives are not always drawn.
Examples of compounds with documented Papp A→B at 2 h follow.
Output spec: scalar in ×10⁻⁶ cm/s, unitless text.

Please review the entries below; each comes with its answer.
- compound: "COCCc1ccc(OCC(O)CNC(C)C)cc1 (stereo not drawn) [Metoprolol tartrate]"
  result type: "Papp A→B at 2 h"
  measured value: 16
- compound: "Nc1nc2c(ncn2COCCO)c(=O)[nH]1"
  result type: "Papp A→B at 2 h"
  measured value: 0.081

Which Papp A→B at 2 h is reported for this compound? C[C@H]1O[C@@H](O[C@H]2[C@@H](O)C[C@H](O[C@H]3[C@@H](O)C[C@H](O[C@H]4CC[C@@]5(C)[C@H](CC[C@@H]6[C@@H]5C[C@@H](O)[C@]5(C)[C@@H](C7=CC(=O)OC7)CC[C@]65O)C4)O[C@@H]3C)O[C@@H]2C)C[C@H](O)[C@@H]1O 0.09

====

experiment: Caco-2 cells monolayer transport study; type: in vitro ADME; details: human, Caco-2
result type: Papp B→A at 2 h, 30 μg/mL (×10⁻⁶ cm/s)
Output spec: scalar in ×10⁻⁶ cm/s, unitless text.

Which Papp B→A at 2 h, 30 μg/mL is reported for this compound? C[C@H]1O[C@@H](O[C@H]2[C@@H](O)C[C@H](O[C@H]3[C@@H](O)C[C@H](O[C@H]4CC[C@@]5(C)[C@H](CC[C@@H]6[C@@H]5C[C@@H](O)[C@]5(C)[C@@H](C7=CC(=O)OC7)CC[C@]65O)C4)O[C@@H]3C)O[C@@H]2C)C[C@H](O)[C@@H]1O [Digoxin] 11.9

====

test: Caco-2 cells monolayer transport study; assay type: in vitro ADME; conditions: human, Caco-2
result type: Papp A→B at 2 h, 120 μg/mL (×10⁻⁶ cm/s)
Output spec: scalar in ×10⁻⁶ cm/s, unitless text.

Which Papp A→B at 2 h, 120 μg/mL is reported for this compound? Nc1ccn([C@@H]2CS[C@H](CO)O2)c(=O)n1 0.297

====

assay: Caco-2 cells monolayer transport study; assay type: in vitro ADME; conditions: human, Caco-2
result type: Papp B→A at 2 h, 1200 μg/mL (nm/s)
Output spec: scalar in nm/s, unitless text.

Which Papp B→A at 2 h, 1200 μg/mL is reported for this molecule? Nc1ccn([C@@H]2CS[C@H](CO)O2)c(=O)n1 7.37

====

assay: Caco-2 cells monolayer transport study; format: in vitro ADME; conditions: human, Caco-2
result type: Papp B→A at 2 h, 120 μg/mL (×10⁻⁶ cm/s)
Output spec: scalar in ×10⁻⁶ cm/s, unitless text.

Which Papp B→A at 2 h, 120 μg/mL is reported for this molecule? Nc1ccn([C@@H]2CS[C@H](CO)O2)c(=O)n1 0.77

====

test: Caco-2 cells monolayer transport study; type: in vitro ADME; settings: human, Caco-2, with GF120918 (elacridar), 10 μM
result type: Papp B→A at 2 h, 120 μg/mL (×10⁻⁶ cm/s)
Output spec: scalar in ×10⁻⁶ cm/s, unitless text.

Which Papp B→A at 2 h, 120 μg/mL is reported for this compound? Nc1ccn([C@@H]2CS[C@H](CO)O2)c(=O)n1 0.519

====

test: Caco-2 cells monolayer transport study; type: in vitro ADME; settings: human, Caco-2, with GF120918 (elacridar), 10 μM
result type: Papp A→B at 2 h, 12 μg/mL (×10⁻⁶ cm/s)
Output spec: scalar in ×10⁻⁶ cm/s, unitless text.

Which Papp A→B at 2 h, 12 μg/mL is reported for this compound? Nc1ccn([C@@H]2CS[C@H](CO)O2)c(=O)n1 0.307

====

assay: Caco-2 cells monolayer transport study; type: in vitro ADME; conditions: human, Caco-2, with GF120918 (elacridar), 10 μM
result type: Papp B→A at 2 h, 12 μg/mL (nm/s)
Output spec: scalar in nm/s, unitless text.

Which Papp B→A at 2 h, 12 μg/mL is reported for this compound? Nc1ccn([C@@H]2CS[C@H](CO)O2)c(=O)n1 5.48
